assay: Aqueous solubilization of 3 under irradiation at various wavelengths (xenon flash lamp, 96-well plate); format: physicochemical; conditions: phosphate buffer, 21 °C, pH 7.4, aqueous buffer, thermodynamic from solid, wavelength 355 nm, bandwidth 40 nm, room temperature (20-22 °C), 1 h; read-out: Aqueous solubilized 3
quantity.kind: solubility at 1 h (µg/mL)
Kindly answer with a numeric value in µg/mL, unit omitted.

Q. Give solubility at 1 h for CC(C)n1nc(/N=N/c2ccccc2)c2c(N)ncnc21 [Compound 3]
A. 4.8
